Target: Syk (Homo sapiens, UniProt P43405)
pIC50: −log10 of the molar value.
measured-property: pIC50

Q) Look up pIC50: NS(=O)(=O)c1cccc2c1C(=O)c1cccc(O)c1C2=O [LLL12]
A) < 4.00

====

Biological target: CDK4/CyclinD1 (Homo sapiens)
Test: Kinase profiler assay
Conditions: 10 concentrations, 100 μM highest
measured-property: pIC50
Give bare numbers, as −log10 of the molar value.

Q) Checklist item: pIC50 tested on CDK4/CyclinD1 (Homo sapiens), entry `NS(=O)(=O)c1cccc2c1C(=O)c1cccc(O)c1C2=O` , value?
A) 4.11

====

Tested on: MDA-MB-231 breast cancer cells
Experiment: MTT cell viability assay
Type: cell-based, human
Details: Homo sapiens; MDA-MB-231, MTT, 72 hours, 10% FBS; read-out: half-maximal inhibitory concentration (IC50), cell viability
measured-property: IC50 (µM)
Answers are plain numbers, in µM.

Q) Look up IC50: `C[C@H](NC(=O)/C(C#N)=C/c1cccc(Br)n1)c1ccccc1`
A) 7.48

====

Target: P13K (P110a/85a) (Homo sapiens, UniProt P42336)
Sequence (P42336 whole entry, stated change not applied): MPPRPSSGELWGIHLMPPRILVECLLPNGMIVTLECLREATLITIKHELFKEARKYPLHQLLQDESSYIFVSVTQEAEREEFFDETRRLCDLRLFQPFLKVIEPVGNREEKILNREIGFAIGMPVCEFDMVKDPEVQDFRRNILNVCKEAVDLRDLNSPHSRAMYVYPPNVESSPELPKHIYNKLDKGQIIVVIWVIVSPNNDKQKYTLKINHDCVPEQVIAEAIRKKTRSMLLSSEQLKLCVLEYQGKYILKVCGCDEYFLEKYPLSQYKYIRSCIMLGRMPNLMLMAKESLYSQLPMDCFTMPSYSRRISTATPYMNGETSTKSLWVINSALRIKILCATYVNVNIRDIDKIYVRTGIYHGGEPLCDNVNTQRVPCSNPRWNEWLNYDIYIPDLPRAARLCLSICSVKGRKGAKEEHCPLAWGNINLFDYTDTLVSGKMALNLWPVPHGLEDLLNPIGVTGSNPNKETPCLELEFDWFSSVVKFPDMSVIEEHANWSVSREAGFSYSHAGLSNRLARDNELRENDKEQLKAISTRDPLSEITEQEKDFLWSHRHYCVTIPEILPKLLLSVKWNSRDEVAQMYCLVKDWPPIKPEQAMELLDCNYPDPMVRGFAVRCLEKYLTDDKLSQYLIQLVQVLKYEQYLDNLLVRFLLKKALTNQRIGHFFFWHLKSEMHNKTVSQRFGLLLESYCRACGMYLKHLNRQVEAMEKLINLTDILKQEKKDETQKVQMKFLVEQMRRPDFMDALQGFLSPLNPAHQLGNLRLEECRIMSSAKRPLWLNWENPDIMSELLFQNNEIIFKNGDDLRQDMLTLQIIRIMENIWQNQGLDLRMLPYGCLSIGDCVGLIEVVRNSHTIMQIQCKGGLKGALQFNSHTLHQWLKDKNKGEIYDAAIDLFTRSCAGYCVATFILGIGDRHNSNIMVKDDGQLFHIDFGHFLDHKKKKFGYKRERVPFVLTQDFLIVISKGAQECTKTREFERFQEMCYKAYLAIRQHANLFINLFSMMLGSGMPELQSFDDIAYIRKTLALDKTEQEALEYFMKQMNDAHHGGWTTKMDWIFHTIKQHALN
Sequence (P27986 2-724 partner): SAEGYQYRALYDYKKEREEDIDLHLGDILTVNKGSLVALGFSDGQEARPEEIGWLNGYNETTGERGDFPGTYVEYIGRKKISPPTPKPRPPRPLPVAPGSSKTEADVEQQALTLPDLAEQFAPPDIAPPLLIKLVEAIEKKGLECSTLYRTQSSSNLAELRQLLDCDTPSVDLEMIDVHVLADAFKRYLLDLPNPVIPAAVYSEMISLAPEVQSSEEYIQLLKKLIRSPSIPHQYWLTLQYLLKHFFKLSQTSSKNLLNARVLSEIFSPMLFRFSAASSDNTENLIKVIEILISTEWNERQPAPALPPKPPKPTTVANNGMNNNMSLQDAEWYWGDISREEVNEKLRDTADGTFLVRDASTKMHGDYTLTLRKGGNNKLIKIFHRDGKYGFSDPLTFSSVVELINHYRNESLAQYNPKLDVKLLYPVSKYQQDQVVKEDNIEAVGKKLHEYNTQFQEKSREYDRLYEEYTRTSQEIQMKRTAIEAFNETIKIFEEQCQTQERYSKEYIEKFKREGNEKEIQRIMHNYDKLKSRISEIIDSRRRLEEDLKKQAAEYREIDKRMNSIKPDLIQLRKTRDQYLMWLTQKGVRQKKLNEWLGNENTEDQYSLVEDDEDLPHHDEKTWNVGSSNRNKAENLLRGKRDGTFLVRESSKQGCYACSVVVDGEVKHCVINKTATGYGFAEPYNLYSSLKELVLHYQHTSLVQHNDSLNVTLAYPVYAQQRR
Assay: Kinase profiler assay
Conditions: 10 concentrations, 100 μM highest
pIC50: −log10 of the molar value.
measured-property: pIC50

Q) Checklist item: pIC50 tested on P13K (P110a/85a) (Homo sapiens, UniProt P42336), entry `NS(=O)(=O)c1cccc2c1C(=O)c1cccc(O)c1C2=O` , value?
A) < 4.00

====

Target: PKC-b (Homo sapiens, UniProt P05771)
Sequence (P05771 whole entry): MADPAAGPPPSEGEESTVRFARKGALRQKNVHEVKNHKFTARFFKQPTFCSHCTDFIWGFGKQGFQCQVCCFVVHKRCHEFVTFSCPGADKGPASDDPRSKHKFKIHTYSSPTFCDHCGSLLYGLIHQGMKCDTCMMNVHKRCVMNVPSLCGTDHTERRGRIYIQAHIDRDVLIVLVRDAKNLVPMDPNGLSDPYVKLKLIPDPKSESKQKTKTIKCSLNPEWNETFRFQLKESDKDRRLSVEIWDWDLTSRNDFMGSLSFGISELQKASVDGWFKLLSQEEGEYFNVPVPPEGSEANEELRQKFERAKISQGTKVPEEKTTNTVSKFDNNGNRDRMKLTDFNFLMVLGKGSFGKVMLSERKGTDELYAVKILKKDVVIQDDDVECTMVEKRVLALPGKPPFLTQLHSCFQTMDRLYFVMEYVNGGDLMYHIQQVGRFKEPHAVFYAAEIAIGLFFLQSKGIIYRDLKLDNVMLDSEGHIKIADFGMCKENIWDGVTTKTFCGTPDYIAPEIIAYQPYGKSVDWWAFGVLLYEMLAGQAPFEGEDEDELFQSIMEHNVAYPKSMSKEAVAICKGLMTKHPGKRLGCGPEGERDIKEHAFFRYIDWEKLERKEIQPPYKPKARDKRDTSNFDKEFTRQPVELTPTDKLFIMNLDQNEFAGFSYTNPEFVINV
measured-property: IC50

Q) Look up IC50: `NS(=O)(=O)c1cccc2c1C(=O)c1cccc(O)c1C2=O`
A) > 100 µM

====

Biological target: AKT1 (Homo sapiens)
pIC50: −log10 of the molar value.
measured-property: pIC50

Q) Look up pIC50: `NS(=O)(=O)c1cccc2c1C(=O)c1cccc(O)c1C2=O`
A) < 4.00

====

Tested on: PANC-1 pancreatic cancer cells
Assay: MTT cell viability assay
Type: cell-based, human
Conditions: Homo sapiens; PANC-1, MTT, 72 hours, 10% FBS; read-out: half-maximal inhibitory concentration (IC50), cell viability
measured-property: pIC50
Answers are plain numbers, as −log10 of the molar value.

Q) Look up pIC50: C[C@H](NC(=O)/C(C#N)=C/c1cccc(Br)n1)c1ccccc1 [WP1066]
A) 5.29

====

Target: Yes (Homo sapiens)
measured-property: IC50

Q) Look up IC50: NS(=O)(=O)c1cccc2c1C(=O)c1cccc(O)c1C2=O [LLL12]
A) > 100 µM

====

Molecular target: Erb B2/H ER2 (Homo sapiens)
Sequence (P04626 23-1255): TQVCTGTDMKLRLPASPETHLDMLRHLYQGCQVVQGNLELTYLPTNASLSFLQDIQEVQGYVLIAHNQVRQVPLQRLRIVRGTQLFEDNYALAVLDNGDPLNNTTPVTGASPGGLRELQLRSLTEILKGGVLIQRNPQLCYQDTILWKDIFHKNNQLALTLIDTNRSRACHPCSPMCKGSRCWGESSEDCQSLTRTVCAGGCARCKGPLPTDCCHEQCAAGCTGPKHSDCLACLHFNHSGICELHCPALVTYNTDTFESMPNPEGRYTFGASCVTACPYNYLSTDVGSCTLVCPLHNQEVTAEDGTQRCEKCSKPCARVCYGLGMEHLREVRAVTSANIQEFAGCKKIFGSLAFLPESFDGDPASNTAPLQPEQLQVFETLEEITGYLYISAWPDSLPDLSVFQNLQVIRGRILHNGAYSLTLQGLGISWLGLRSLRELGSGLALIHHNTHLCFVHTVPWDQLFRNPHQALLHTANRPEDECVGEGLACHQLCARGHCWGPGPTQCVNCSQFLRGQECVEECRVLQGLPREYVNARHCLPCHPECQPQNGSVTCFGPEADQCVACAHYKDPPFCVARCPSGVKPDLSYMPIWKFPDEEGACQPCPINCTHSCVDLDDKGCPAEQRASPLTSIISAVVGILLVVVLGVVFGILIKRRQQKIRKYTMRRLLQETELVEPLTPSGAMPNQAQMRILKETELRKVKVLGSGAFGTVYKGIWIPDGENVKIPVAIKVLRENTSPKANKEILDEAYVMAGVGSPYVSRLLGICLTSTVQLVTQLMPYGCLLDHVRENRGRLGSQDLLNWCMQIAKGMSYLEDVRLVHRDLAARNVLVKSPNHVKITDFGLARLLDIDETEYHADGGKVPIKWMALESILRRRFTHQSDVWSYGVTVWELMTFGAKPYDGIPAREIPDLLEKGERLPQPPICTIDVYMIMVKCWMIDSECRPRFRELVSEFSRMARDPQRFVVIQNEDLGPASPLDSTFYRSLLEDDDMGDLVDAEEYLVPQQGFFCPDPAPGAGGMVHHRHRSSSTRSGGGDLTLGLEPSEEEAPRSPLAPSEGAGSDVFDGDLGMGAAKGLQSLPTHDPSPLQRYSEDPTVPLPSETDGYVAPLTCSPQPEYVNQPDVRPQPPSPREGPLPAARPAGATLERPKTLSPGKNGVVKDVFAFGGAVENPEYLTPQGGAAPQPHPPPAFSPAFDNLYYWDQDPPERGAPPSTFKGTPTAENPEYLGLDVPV
Assay: Kinase profiler assay
Conditions: 10 concentrations, 100 μM highest
pIC50: −log10 of the molar value.
measured-property: pIC50

Q) Look up pIC50: `NS(=O)(=O)c1cccc2c1C(=O)c1cccc(O)c1C2=O`
A) < 4.00

====

Molecular target: CDK6/CyclinD1 (Homo sapiens)
Experiment: Kinase profiler assay
Conditions: 10 concentrations, 100 μM highest
measured-property: IC50

Q) Checklist item: IC50 tested on CDK6/CyclinD1 (Homo sapiens), entry NS(=O)(=O)c1cccc2c1C(=O)c1cccc(O)c1C2=O [LLL12] , value?
A) > 100 µM

====

Target chain: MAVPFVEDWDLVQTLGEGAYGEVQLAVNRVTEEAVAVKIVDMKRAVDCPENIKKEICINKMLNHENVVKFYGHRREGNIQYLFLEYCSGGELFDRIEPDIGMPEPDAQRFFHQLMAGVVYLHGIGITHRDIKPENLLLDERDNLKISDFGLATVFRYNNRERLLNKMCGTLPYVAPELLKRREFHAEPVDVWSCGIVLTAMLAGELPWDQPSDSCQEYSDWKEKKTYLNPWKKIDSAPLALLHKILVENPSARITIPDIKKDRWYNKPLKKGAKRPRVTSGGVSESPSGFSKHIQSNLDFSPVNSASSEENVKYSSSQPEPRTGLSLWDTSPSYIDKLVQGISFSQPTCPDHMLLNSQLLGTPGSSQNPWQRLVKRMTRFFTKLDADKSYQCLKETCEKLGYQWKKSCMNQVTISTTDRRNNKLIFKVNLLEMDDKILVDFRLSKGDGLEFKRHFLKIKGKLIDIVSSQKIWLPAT
measured-property: IC50

Q) Look up IC50: NS(=O)(=O)c1cccc2c1C(=O)c1cccc(O)c1C2=O [LLL12]
A) > 100 µM

====

Target: Pyk2 (Homo sapiens, UniProt Q14289)
Sequence (Q14289 whole entry): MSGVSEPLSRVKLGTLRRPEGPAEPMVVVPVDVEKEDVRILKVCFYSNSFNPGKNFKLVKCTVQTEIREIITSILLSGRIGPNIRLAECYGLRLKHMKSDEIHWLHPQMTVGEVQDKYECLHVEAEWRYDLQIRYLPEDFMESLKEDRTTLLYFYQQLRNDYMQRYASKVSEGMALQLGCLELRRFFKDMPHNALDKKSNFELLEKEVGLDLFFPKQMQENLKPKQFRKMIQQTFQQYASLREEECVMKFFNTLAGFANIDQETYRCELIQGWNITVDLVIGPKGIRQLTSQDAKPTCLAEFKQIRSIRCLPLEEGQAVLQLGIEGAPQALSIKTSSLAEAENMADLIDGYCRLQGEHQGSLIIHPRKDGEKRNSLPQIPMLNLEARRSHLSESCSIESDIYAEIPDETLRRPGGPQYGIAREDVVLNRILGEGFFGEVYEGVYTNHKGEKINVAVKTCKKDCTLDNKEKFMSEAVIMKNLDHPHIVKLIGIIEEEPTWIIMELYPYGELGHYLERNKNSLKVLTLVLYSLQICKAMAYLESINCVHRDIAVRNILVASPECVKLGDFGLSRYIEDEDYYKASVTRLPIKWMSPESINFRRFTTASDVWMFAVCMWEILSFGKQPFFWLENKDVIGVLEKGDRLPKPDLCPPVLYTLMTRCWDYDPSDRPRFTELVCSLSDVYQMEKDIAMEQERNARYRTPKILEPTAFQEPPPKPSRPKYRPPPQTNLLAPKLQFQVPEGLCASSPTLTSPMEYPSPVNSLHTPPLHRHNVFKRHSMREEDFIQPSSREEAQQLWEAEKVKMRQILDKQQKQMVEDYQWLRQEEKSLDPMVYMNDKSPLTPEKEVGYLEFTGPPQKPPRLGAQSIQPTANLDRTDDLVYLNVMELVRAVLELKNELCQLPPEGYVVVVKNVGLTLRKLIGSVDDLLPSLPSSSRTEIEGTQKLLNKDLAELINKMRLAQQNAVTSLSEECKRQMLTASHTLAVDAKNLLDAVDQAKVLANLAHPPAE
pIC50: −log10 of the molar value.
measured-property: pIC50

Q) Look up pIC50: `NS(=O)(=O)c1cccc2c1C(=O)c1cccc(O)c1C2=O`
A) < 4.00
